The measured values listed here are drawn from patent US20170008955A1.

Items are presented alongside their recorded pKd.
target_under_test: T1, cSNK:BSA conjugate (bovine, head-to-tail cyclized; conjugated to BSA carrier)
T1 construct: also called BSA-cSNK
protocol_summary: BLI (Octet RED96), 2:1 kinetics, KD1, summary table
Lab note — pKd values are minus log10 of concentrations in M.

Worked set:
1. hu5E3-IgG2 (antibody, V domains shown, human IgG2/kappa; also called humanized 5E3 IgG2) VH: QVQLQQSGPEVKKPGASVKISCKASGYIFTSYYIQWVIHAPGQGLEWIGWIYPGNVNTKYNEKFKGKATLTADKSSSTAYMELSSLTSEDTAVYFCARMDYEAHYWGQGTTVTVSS VL: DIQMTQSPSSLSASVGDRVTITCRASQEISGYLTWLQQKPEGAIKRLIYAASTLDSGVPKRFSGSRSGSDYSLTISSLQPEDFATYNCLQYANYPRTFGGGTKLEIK: 8.93
2. rehu5E3-IgG2 (antibody, V domains shown, human IgG2/kappa) VH: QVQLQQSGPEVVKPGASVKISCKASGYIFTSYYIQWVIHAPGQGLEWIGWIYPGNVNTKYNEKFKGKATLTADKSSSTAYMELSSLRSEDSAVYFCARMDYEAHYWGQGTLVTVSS VL: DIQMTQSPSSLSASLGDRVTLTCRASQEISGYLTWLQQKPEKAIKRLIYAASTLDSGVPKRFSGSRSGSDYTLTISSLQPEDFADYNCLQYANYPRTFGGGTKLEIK: 8.09
3. murine monoclonal antibody 5E3 (antibody, V domains shown, mouse antibody of the 5E3 hybridoma; also called murine 5E3; m5E3) VH: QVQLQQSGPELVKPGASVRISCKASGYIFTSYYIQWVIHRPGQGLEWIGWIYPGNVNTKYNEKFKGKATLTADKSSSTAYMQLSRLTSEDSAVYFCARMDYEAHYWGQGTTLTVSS VL: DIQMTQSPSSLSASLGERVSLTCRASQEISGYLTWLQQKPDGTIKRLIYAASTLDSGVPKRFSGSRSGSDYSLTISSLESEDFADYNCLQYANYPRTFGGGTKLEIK: 9.48

Field: next binder
**Query** Quote pKd reported for hu5E3-IgG1 (antibody, V domains shown, human IgG1/kappa; also called humanized 5E3 IgG1; IHA variant) VH: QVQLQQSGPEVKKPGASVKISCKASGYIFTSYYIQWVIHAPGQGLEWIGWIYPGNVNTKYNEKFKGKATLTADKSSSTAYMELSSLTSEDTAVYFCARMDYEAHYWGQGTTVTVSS VL: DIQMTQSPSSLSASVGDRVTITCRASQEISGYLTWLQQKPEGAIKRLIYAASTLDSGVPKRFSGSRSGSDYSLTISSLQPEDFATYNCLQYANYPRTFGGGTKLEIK please.
**Result** 9.33
